I'd be grateful if you could share measured % fluorescent cells increase for these entries.
- assay_summary: compound fluorescence in GFP channel, mTEFS cells – imaging, mTEFS fibroblasts, cherry-pick, artefact control for X-chromosome reactivation project, dose response (AID 743396);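 for % fluorescent cells increase: raw share of Hoechst-counted cells scored GFP positive without control normalization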
- setup_conditions: mTEFS fibroblasts autofluorescence, GFP-channel imaging, 3 days; at 19.5 µM (top of the series); cells pretreated with 5-aza-dC
Numbers only, in %.

Known results for compounds:
Notebook: N=c1ccn2c(n1)OC1C(O)C(CO)OC12 (stereo unspecified) , % fluorescent cells increase read as -0.006

Notebook: COc1ccc(N2CCN(C(CNC(=O)c3ccc4c(c3)OCO4)c3ccco3)CC2)cc1 (stereo unspecified) , % fluorescent cells increase read as 0

Dear colleague, could you please provide % fluorescent cells increase for the compounds listed below?
1. C[C@@H]1CN([C@@H](C)CO)C(=O)c2cc(NS(=O)(=O)c3cn(C)cn3)ccc2O[C@@H](C)CCCCO[C@H]1CN(C)C(=O)c1ccccc1
2. COc1ccc(C(=O)N/N=C/c2cc(Br)ccc2O)cc1OC
3. CN(C)S(=O)(=O)c1cccc(C(=O)NCC2(N3CCOCC3)CCCCC2)c1
4. CCc1nc(C)cn1S(=O)(=O)c1ccc([N+](=O)[O-])cc1

1. 0
2. 4.96
3. 0.019
4. 0.011

Dear colleague, could you please provide % fluorescent cells increase for the compounds listed below?
1. COc1ccc(C2=C(c3ccccc3)OC(OC)c3cc(F)ccc32)cn1 (stereo unspecified)
2. COCCN(C(=O)c1ccc2c(c1)C(=O)N(c1ccccc1Cl)C2=O)c1c(N)n(CC(C)C)c(=O)[nH]c1=O
3. COc1ccc(Cc2c(O)nc(SCC(=O)NC34CC5CC(CC(C5)C3)C4)[nH]c2=O)cc1
4. Cc1ccsc1C1Nc2ccccc2-c2nc3ccccc3n21 (stereo unspecified)
5. CC1=Nc2ccccc2/C1=C\c1sc(Nc2ccc(C)cc2)nc1O
6. C[C@H](NC(=O)C[C@H]1CC[C@@H](NC(=O)Cc2ccccn2)[C@@H](CO)O1)c1ccccc1
7. O=C1Nc2ccccc2/C1=C/c1ccccc1Cl
8. Nc1cc2c3c(cccc3c1)C(=O)N(CCN1CCCC1)C2=O

1: 0.033; 2: 1.41; 3: 0.014; 4: 0.699; 5: 0.199; 6: 0.008; 7: 0; 8: -0.003

Dear colleague, could you please provide % fluorescent cells increase for the compounds listed below?
1. NC(=S)Nc1ccc(Cl)cc1Cl
2. CC1CC(C)CN(C(=O)CSCC(=O)Nc2nc(-c3cccs3)cs2)C1 (stereo unspecified)
3. Cc1cccc2sc(N(CCCN(C)C)C(=O)CN3C(=O)c4ccccc4C3=O)nc12
4. COc1ccccc1CN1CC[C@H]2[C@H](CO)Nc3ccc(C#Cc4ccccc4)cc3[C@H]21
5. O=C(O)c1ccccc1CSc1nc2ccccc2n1Cc1ccccc1C(=O)O
6. O=C(CCN1CCCCC1)NCC[C@@H]1CC[C@H](NC(=O)C2CCCCC2)[C@H](CO)O1
7. CN(C)C(=O)C[C@@H]1C=C[C@H](NS(=O)(=O)c2ccccc2)[C@@H](CO)O1

0.009
0
0
0
0.253
0.045
0

---

I'd be grateful if you could share measured AC40 for these entries.
- System: mTEFS fibroblasts autofluorescence, GFP-channel imaging, 3 days
- assay_summary: compound fluorescence in GFP channel, mTEFS cells – imaging, mTEFS fibroblasts, cherry-pick, artefact control for X-chromosome reactivation project, dose response (AID 743396)
- setup_conditions: cells pretreated with 5-aza-dC
Activity calls are given as the source filed them.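 Rule for the calls: active = fitted curve reaches a 40% rise in fluorescent cells at or below the top valid dose; inactive = opposite-direction effect, or the rest.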

Known results for compounds:
Notebook: N#C/C(=C/c1ccc(-c2ccc(S(N)(=O)=O)cc2)o1)c1nc2ccccc2s1 , AC40 read as 2.25 µM

Notebook: CN(C)CCCN1C(=O)c2cccc3c([N+](=O)[O-])ccc(c23)C1=O , AC40 read as > 19.5 µM (inactive)

Notebook: O=C(NCc1ccccc1)c1cccc2c1C(=O)c1ccc(/C=C/c3ccccc3)cc1S2(=O)=O , AC40 read as 15 µM

Notebook: Cc1[nH]c2ccccc2c1/C=N/Nc1ccc([N+](=O)[O-])cc1 , AC40 read as 12.2 µM

Notebook: CCN1/C(=C\c2ccc3ccccc3[n+]2CC)Sc2cc(C)ccc21 , AC40 read as 0.582 µM

Dear colleague, could you please provide AC40 for the compounds listed below?
1. CCN(CC)c1ccc(/C=C(/C#N)C(=O)NCc2ccccc2)o1
2. CC(C)(C)NC(=S)N/N=C\c1ccc(-c2ccc([N+](=O)[O-])cc2)o1
3. CCCCCC[n+]1ccccc1/C=C/c1ccc(N(C)C)cc1
4. CCOC(=O)/C=c1\s/c(=C\c2ccc3cc(OC)ccc3c2)c(=O)n1CC(=O)NCc1ccc2c(c1)OCO2
5. O=C(NC1CCCC1)c1cccc2c1C(=O)c1ccc(/C=C/c3ccccc3)cc1S2(=O)=O
6. CCN1/C(=C/c2ccc3cc(C)cc(C)c3[n+]2CC)Sc2cc(C)ccc21
7. Cc1cccc2cc3c(N)c(C(=O)N4CCCc5ccccc54)sc3nc12
8. COc1ccc(CCNC(=O)c2ccc([N+](=O)[O-])cc2)cc1

1. 5.55 µM
2. 7.84 µM
3. > 19.5 µM (inactive)
4. 4.43 µM
5. > 19.5 µM (inactive)
6. 10.4 µM
7. 10.2 µM
8. 18.8 µM
